Stated Conditions: in methanol, 288.15 K
Experimental Endpoint: solubility (mole fraction)
Reply: number alone, nothing else.

Can you share its solubility (mole fraction)? I mean this compound: Nc1ccccc1N 0.0554

---

Stated Conditions: in methanol, 285.65 K
Experimental Endpoint: solubility (mole fraction)
Reply: number alone, nothing else.

Can you share its solubility (mole fraction)? I mean this molecule: Nc1ccccc1N 0.0533

---

Stated Conditions: in ethanol, 293.15 K
Experimental Endpoint: solubility (mole fraction)
Reply: number alone, nothing else.

Can you share its solubility (mole fraction)? I mean this molecule: Nc1ccccc1N 0.016

---

Stated Conditions: in methanol, 310.65 K
Experimental Endpoint: solubility (mole fraction)
Reply: number alone, nothing else.

Can you share its solubility (mole fraction)? I mean this molecule: Nc1ccccc1N 0.0758
